pIC50 by entry:
System: MDA-MB-231
MEASUREMENT DESCRIPTION: Antiproliferative activity against human MDA-MB-231 cells after 48 hrs by MTT assay
Assay type: functional, cell-based
TEST PARAMETERS: MDA-MB-231, 48 h
Hey, just a heads up that pIC50 is the negative log base 10 of the concentration in molar.

Consider the reported pIC50 for these compounds:
>>> reported("CO[C@@]12[C@H](COC(N)=O)C3=C(C(=O)C(C)=C(N)C3=O)N1C[C@@H]1N[C@@H]12 [MITOMYCIN]")
5.36
>>> reported("C=C1C(=O)O[C@@H]2/C=C(/C)[C@@H](OC(C)=O)C/C=C(\\C)C[C@@H](OC(=O)/C(=C\\C)CO)[C@@H]12")
6.10

Moving on to another compound below.
[ask] Quick one: pIC50 of C=C1C(=O)O[C@@H]2/C=C(/C)[C@H](OC(C)=O)C/C=C(\C)C[C@@H](OC(=O)/C(=C\C)CO)[C@@H]12 ?
[reply] 5.48
